# procedure details: yeast display, Sf9 membrane polyspecificity reagent, FACS + sequencing; frameworks hold sequencing errors
recorded metric: polyreactivity (PSR sort gate)

QVQLVESGGGLVQAGGSLRLSCAASGFIFVLNVMGWYRQAPGKERELVAAITWRGTSTYYADSVKGRFTISRDNAKNTVYLQMNSLKPEDTAVYYCAVKGFSTRSYREFDYWGQGTQVTVSS : low polyreactivity
QVQLVESGGGLVQAGGSLRLSCAASGIIFGRNAMGWYRPAPGKERELVAVITGGGGRTYYADSVKGRFTISRDNAKKTVYLQMNSLKPEDTAVYYCNKDYRRNLAYFKEPGVPVDYWGQGTQVTVSS : low polyreactivity
QVQLVESGGALVQAGGSLRLSCAASGFILNKNVMGWYRQPPRKERELVAAITGSGGRTYYADSVKGRFTISRDNAKNTVYLQMNCLKPEDTAVFYCNALPGTQYNYWGQGTQVTVSS : high polyreactivity
QVQFVESGGGLVKAGGSLRLSCAASGYTFGRYAMGWYRQAPGKERELVAAITKSGGPTSYADSVKGRFTISRDNAKNTVYLQMNSLKPEDTAVYYCNKVLFQPYWVVYATGDYWGQGTQVTVSS : high polyreactivity

Moving on to the next sequence.
Prompt line: Report polyreactivity (PSR sort gate) for "QVQLVESGGGLVQAGGSLRLSCAASGFIFYRYAMGWYRQAPGKERELVAAISKSGSSTYYADSVKGRFTISRDNAKNTVYLQMNSLKPEDTAVYYCARDRQSRSLLEYDYWGQGTQVTVSS" please.
Response line: low polyreactivity
